Reported normalized growth values are given for each entry in this list.
Experiment: chemical genetic growth profiling, strain panel (AID 1159580);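 note: tested at 20 µM; growth read once vehicle control cultures reached saturation at 30 °C; 1 = growth at the plate median or of vehicle wells; lower values mean less growth of the strain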
Details: S. cerevisiae deletion strains, growth OD, locus YPR141C, strain kar3, hits give low values
Among all 5,500 compounds or so, about 2,000 (36%) were called active. About 18% were inconclusive and are not listed. This is one part of the list.

Compound	Endpoint Result
CNc1ccccc1C(=O)O	0.968 (inactive)
COC(=O)Oc1ccccc1C(=O)O	1.03 (inactive)

Q: Quote normalized growth reported for CSCCC(NC=O)C(=O)NC(C)C(=O)O (stereo not drawn) please.
Ans: 0.978 (inactive)

###

Reported normalized growth values are given for each entry in this list.
Assay: chemical genetic growth profiling, strain panel (AID 1159580);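 note: tested at 20 µM; growth read once vehicle control cultures reached saturation at 30 °C; 1 = growth at the plate median or of vehicle wells; lower values mean less growth of the strain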
Conditions: S. cerevisiae deletion strains, growth OD, locus YIL125W, strain kgd1, hits give low values
Out of some 5,500 compounds screened, about 2,000 (36%) were called active. Roughly 18% stayed inconclusive and do not appear here. The list shows a part of the results.

// worked examples, normalized growth included
Compound	Endpoint Result
CN[C@H](CC(=O)O)C(=O)O	1 (inactive)
NC[C@H](O)c1ccc(O)c(O)c1	1.01 (inactive)
NCC(O)c1ccc(O)cc1 (configuration not stated)	0.982 (inactive)
COc1cc(OC)c2c(=O)c(-c3ccccc3)c(C)oc2c1OC	0.997 (inactive)
CC(C)NCC(O)c1ccc(O)c(O)c1 (configuration not stated)	0.99 (inactive)

Q: Quote normalized growth reported for `O=C(O)c1ccccc1Nc1cccc(C(F)(F)F)c1` please.
Ans: 0.981 (inactive)

Q: Quote normalized growth reported for `Oc1ccc(Cl)c2cccnc12` please.
Ans: 0.0705 (active)
